Exercise: for every item that follows, state its recorded Kd.
Molecular target: GCGR extracellular domain (human, UniProt P47871)
Sequence (P47871 26-477): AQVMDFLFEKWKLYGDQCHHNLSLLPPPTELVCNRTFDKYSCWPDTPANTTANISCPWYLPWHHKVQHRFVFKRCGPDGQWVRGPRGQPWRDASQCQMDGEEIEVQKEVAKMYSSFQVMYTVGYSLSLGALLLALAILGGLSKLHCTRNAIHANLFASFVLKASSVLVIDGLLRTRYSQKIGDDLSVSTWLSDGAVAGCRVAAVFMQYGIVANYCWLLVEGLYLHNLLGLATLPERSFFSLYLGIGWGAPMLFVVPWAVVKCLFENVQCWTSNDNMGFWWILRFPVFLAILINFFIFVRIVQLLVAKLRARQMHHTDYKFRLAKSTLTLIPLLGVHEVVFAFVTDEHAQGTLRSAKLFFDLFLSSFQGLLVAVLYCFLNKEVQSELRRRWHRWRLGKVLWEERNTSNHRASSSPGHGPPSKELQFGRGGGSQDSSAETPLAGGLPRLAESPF
Assay: SPR

For every listed record, write down its Kd.
1. VL S93Q (antibody, V domains shown) VH: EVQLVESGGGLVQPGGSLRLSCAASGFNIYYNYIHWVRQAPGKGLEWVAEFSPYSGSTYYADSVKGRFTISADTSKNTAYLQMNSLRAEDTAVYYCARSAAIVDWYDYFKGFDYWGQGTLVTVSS VL: DIQMTQSPSSLSASVGDRVTITCRASQSVSSAVAWYQQKPGKAPKLLIYSASSLYSGVPSRFSGSRSGTDFTLTISSLQPEDFATYYCQQYGQYLYTFGQGTKVEIK
2. VL S93I (antibody, V domains shown) VH: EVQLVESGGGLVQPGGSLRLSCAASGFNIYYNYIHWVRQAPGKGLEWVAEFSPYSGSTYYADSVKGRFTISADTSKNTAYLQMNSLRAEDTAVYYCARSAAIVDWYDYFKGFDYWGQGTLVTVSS VL: DIQMTQSPSSLSASVGDRVTITCRASQSVSSAVAWYQQKPGKAPKLLIYSASSLYSGVPSRFSGSRSGTDFTLTISSLQPEDFATYYCQQYGIYLYTFGQGTKVEIK
3. VH Y30A (antibody, V domains shown) VH: EVQLVESGGGLVQPGGSLRLSCAASGFNIAYNYIHWVRQAPGKGLEWVAEFSPYSGSTYYADSVKGRFTISADTSKNTAYLQMNSLRAEDTAVYYCARSAAIVDWYDYFKGFDYWGQGTLVTVSS VL: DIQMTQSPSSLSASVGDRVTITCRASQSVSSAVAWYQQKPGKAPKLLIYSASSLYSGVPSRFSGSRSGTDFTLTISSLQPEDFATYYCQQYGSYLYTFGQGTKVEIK

Ans.
2.18 nM
2.28 nM
21.3 nM

Where these numbers come from: patent US20260317437
